test system: Wolbachia pipientis; assay: Anti-Wolbachia Cell-Based Screen; assay type: functional; parameters: scale not given: in the data most compounds retested in dose-response had high values; details: 5 µM
Among all 48,000 compounds or so, about 13,000 (27%) showed an effect of 50% or more. The list shows a part of the results.
assay-readout: Percent Effect (%)
Reply numerically in %, unit not repeated.

The reported Percent Effect of the molecule NC(=O)CC1CCN(C(=O)c2cccn2Cc2cccs2)CC1 was 101.5

The reported Percent Effect of the molecule NC(=O)C1CCN(C(=O)c2cccn2Cc2cccs2)CC1 was 117.1

The reported Percent Effect of the molecule CC(C)(NC(=O)C1CCCN(C2CCCC2)C1)c1nnc(N)s1 (configuration not stated) was -3.514

The reported Percent Effect of the molecule Cc1cccnc1NC(=O)CNC(=O)c1ccccc1Cl was -60.17

The reported Percent Effect of the molecule CCCn1ncc(-c2ccnc(NC3CCCc4ccccc43)n2)c1C (configuration not stated) was -7.325

The reported Percent Effect of the molecule O=c1[nH]c(-c2ccc(F)c(F)c2)nc2c1CCNC2 was -21.65

The reported Percent Effect of the molecule Cc1ccccc1CN(Cc1ccccn1)C(=O)CN(C)C(C)C was -1.429

The reported Percent Effect of the molecule Cc1ccccc1CSc1ncccc1C(=O)N(C)C was 111

The reported Percent Effect of the molecule CN(CCc1ccccn1)C(=O)c1cn2c(n1)CNCC2 was -0.4774

The reported Percent Effect of the molecule O=C(c1ccccn1)N1CCc2ncnc(-c3ccncc3)c2CC1 was 88.26

The reported Percent Effect of the molecule Cc1cccnc1C(=O)N1CCC(Cc2cnc3[nH]ccc3c2)CC1 was 75.79

The reported Percent Effect of the molecule O=C(c1cccn1Cc1cccs1)N1CCN2CCCCC2C1 (configuration not stated) was 106.1

---

system: Wolbachia pipientis; assay: Anti-Wolbachia Cell-Based Screen; format: functional; design: scale not given: in the data most compounds retested in dose-response had high values; conditions: 5 µM
About 13,000 (27%) of roughly 48,000 compounds showed an effect of 50% or more. The list shows a part of the results.
assay-readout: Percent Effect (%)
Reply numerically in %, unit not repeated.

Result for Cc1ccc(CNc2ccn(CCc3ccncc3)n2)s1 , tested on Wolbachia pipientis, Percent Effect: 19.44

Result for O=C1CC2(CCN(CC3CCOC3)CC2)CN1Cc1cc(F)cc(F)c1 (configuration not stated) , tested on Wolbachia pipientis, Percent Effect: 4.353

Result for Nc1nc2c(c(NC(=O)Nc3ccccc3)n1)CCCC2 , tested on Wolbachia pipientis, Percent Effect: -9.493

Result for COc1ncccc1C(=O)N1CCC2(CC1)CC(OC)CO2.O=C(O)C(F)(F)F (configuration not stated) , tested on Wolbachia pipientis, Percent Effect: 101.4

Result for O=C(Cc1cccs1)NCC1(O)CCc2ccccc2C1 (configuration not stated) , tested on Wolbachia pipientis, Percent Effect: 1.555

Result for O=C(Nc1cccc(N2CCN(CC3CC3)CC2)c1)C1CCCO1 (configuration not stated) , tested on Wolbachia pipientis, Percent Effect: -16.14

Result for Cl.Cl.O=C([C@@H]1CSCN1)N1CC2(CCNCC2)c2cc(Cl)ccc21 , tested on Wolbachia pipientis, Percent Effect: 111

Result for O=C(NCC(O)c1ccoc1)Nc1cccs1 (configuration not stated) , tested on Wolbachia pipientis, Percent Effect: 112.3

Result for CNc1nc(C2CCCN2C(C)=O)nc2c1CN(C1CCCC1)CC2 (configuration not stated) , tested on Wolbachia pipientis, Percent Effect: 121.2

Result for Cc1noc(C2CCC3(CCN(C(=O)C4=CCCCC4)CC3)O2)n1 (configuration not stated) , tested on Wolbachia pipientis, Percent Effect: -12.42

Result for COc1ccc(CN2CCCC2)cc1Oc1cccc(C#N)n1 , tested on Wolbachia pipientis, Percent Effect: 4.454

Result for CCc1nnc2n1CCN(C(=O)c1ccc3nc(C)c(C)nc3c1)C2 , tested on Wolbachia pipientis, Percent Effect: 6.266

---

test system: Wolbachia pipientis; assay: Anti-Wolbachia Cell-Based Screen; assay type: functional; set-up: scale not given: in the data most compounds retested in dose-response had high values; conditions: 5 µM
In all, about 48,000 compounds went through this assay and about 13,000 (27%) showed an effect of 50% or more. Some of the results follow.
assay-readout: Percent Effect

The reported Percent Effect of the compound CSc1ncccc1C(=O)N1C[C@H]2CC[C@@H]1CN(c1ncccn1)C2 was -10.71%

The reported Percent Effect of the compound CCN(C(=O)NCc1ccccc1OC(F)F)C(C)c1cccnc1 (stereo not given) was -11.48%

The reported Percent Effect of the compound C[S+]([O-])c1nncn1CC(=O)c1cccc(Cl)c1 (stereo not given) was 6.672%

The reported Percent Effect of the compound COc1ccc(S(=O)(=O)NC(=O)c2ccccc2F)cc1OC was -11%

The reported Percent Effect of the compound O=C(NC1CCN(c2ccc(-c3ccccc3F)nn2)C1)C1CCC1 (stereo not given) was -17.95%

The reported Percent Effect of the compound Cn1nccc1CN1CCCC(COc2ccccc2F)C1 (stereo not given) was 162.8%

The reported Percent Effect of the compound Cc1nc2ccccc2c(=O)n1CCC(=O)N1CCNC(=O)C1 was -8.423%

The reported Percent Effect of the compound COc1ccc(NC(=O)N2CCCCCC2c2ccncc2)cn1 (stereo not given) was -7.407%

The reported Percent Effect of the compound NC(=O)Cn1nc(-c2ccccc2F)ccc1=O was 144.8%

The reported Percent Effect of the compound COC(=O)Cn1nc(-c2ccccc2F)ccc1=O was 121.8%

The reported Percent Effect of the compound CCc1nc2ccccc2c(=O)n1CC1(O)CCN(S(C)(=O)=O)CC1.Cl was -5.087%

The reported Percent Effect of the compound Cc1ccc(C(=O)N[C@H]2CN(CCO)C[C@@H]2C2CC2)cc1Cl was 4.454%

The reported Percent Effect of the compound Cc1cccc(N2CC3(COCCN(c4ccncn4)C3)OCC2=O)c1 (stereo not given) was -13.92%

The reported Percent Effect of the compound Cc1ccoc1C(=O)N1C[C@@H]2COC[C@]2(COCc2cccnc2)C1.O=C(O)C(F)(F)F was -8.448%

The reported Percent Effect of the compound CCn1cc(CN2CCCC(COc3ccccc3F)C2)cn1 (stereo not given) was 9.663%

---

system: Wolbachia pipientis; experiment: Anti-Wolbachia Cell-Based Screen; type: functional; parameters: scale not given: in the data most compounds retested in dose-response had high values; settings: 5 µM
Out of some 48,000 compounds screened, about 13,000 (27%) showed an effect of 50% or more. Some of the results follow.
assay-readout: Percent Effect (%)
Reply numerically in %, unit not repeated.

The reported Percent Effect of the compound Cc1nc(O)cc(C2CCN(C(=O)C(C)Cn3nc(C)nc3C)CC2)n1 (stereo not given) was -10.44

The reported Percent Effect of the compound Cc1noc(C2CCC3(CCN(C(=O)c4ncccn4)CC3)O2)n1 (stereo not given) was 110.9

The reported Percent Effect of the compound Cc1ccc(N2CC[C@H]3O[C@H](C(=O)N4CCCCO4)CC[C@H]32)nn1.O=C(O)C(F)(F)F was 105.7

The reported Percent Effect of the compound CC(=O)NCCOc1cccc(Br)c1 was 0.6269

The reported Percent Effect of the compound Cc1ccccc1-c1csc2c(=O)[nH]c(N3CCCC(C(=O)O)C3)nc12 (stereo not given) was 12.14

---

test system: Wolbachia pipientis; assay: Anti-Wolbachia Cell-Based Screen; assay type: functional; design: scale not given: in the data most compounds retested in dose-response had high values; details: 5 µM
About 13,000 (27%) of roughly 48,000 compounds showed an effect of 50% or more. The list shows a part of the results.
assay-readout: Percent Effect (%)
Reply numerically in %, unit not repeated.

Result for Cc1nc(C)n(CC2CCCCN2Cc2cscn2)n1 (stereo not given) , tested on Wolbachia pipientis, Percent Effect: 10.69

Result for CNC(=O)C1(c2cnccn2)CCCN1C(=O)c1ccn(C)n1 (stereo not given) , tested on Wolbachia pipientis, Percent Effect: -6.037

Result for CCS(=O)(=O)N1CCC2(CCCN(Cc3ccc(F)c(F)c3)C2=O)C1 (stereo not given) , tested on Wolbachia pipientis, Percent Effect: -34.42

Result for COc1cc(CNC2CCCc3c2cnn3C)cc(OC)c1.Cl (stereo not given) , tested on Wolbachia pipientis, Percent Effect: 0.06204

Result for CCNc1ncc(C(=O)NC2CCOCC2)cn1 , tested on Wolbachia pipientis, Percent Effect: -0.8414
